Molecular target: rat P2X3 receptor (Rattus norvegicus, UniProt P49654)
Construct: expressed in transfected cells; host or cells: CHO-K1
Test: P2X3 FLIPR (Fluorometric Imaging Plate Reader) assay
Type: cell-based
Conditions: CHO-K1 cells transfected with cloned rat P2X3; agonist α,β-meATP 1 μM; Fluo-3 AM calcium fluorescence
metric name: P2X3 (pIC50 values for the P2X3 receptor)

These solved cases illustrate the format of a correct answer.
{"compound": "CCC(=O)N(C)c1cc(C(=O)NC(C)COC)cc(-c2ccc(C)cc2)c1 (centres unmarked) [Compound 18]", "recorded value": 5.35}
{"compound": "COCC(C)NC(=O)c1cc(NC(=O)c2cc(C)on2)cc(-c2ccc(C)cc2)c1 (centres unmarked) [Compound 16]", "recorded value": 5.4}
{"compound": "CCN(C(=O)COC)c1cc(C(=O)NC(C)c2cnccn2)cc(-c2ccc(C)cc2)c1 (centres unmarked) [Compound 23]", "recorded value": 6.5}

1. Cc1ccc(-c2cc(C(=O)NC(C)c3cnccn3)cc(N(C)C(=O)c3snnc3C)c2)cc1 (centres unmarked) [Compound 36]
2. Cc1ccc(-c2cc(C(=O)NC(C)c3cnccn3)cc(N(C)C(=O)C(C)C)c2)c(F)c1 (centres unmarked) [Compound 58]
Prompt: In the pair 1 and 2 , the larger recorded P2X3 (pIC50 values for the P2X3 receptor) belongs to which? The response must carry the label of the picked entry.
Response: 2

###

Target: rat P2X3 receptor (Rattus norvegicus)
Construct: expressed in transfected cells; host or cells: CHO-K1
Sequence (P49654 1-397): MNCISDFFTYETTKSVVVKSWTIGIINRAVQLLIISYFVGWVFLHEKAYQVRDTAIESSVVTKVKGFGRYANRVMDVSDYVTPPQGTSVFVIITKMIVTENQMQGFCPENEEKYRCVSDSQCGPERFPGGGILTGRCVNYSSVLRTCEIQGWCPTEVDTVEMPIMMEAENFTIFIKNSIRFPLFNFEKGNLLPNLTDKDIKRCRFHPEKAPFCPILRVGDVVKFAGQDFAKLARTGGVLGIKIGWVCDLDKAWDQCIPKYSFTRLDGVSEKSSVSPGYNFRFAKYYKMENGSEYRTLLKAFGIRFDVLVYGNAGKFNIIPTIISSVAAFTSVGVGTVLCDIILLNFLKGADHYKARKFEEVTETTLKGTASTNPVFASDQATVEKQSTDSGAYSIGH
Assay: P2X3 FLIPR (Fluorometric Imaging Plate Reader) assay
Format: cell-based
Conditions: CHO-K1 cells transfected with cloned rat P2X3; agonist α,β-meATP 1 μM; Fluo-3 AM calcium fluorescence
metric name: P2X3 (pIC50 values for the P2X3 receptor)

{"compound": "Cc1ccc(-c2cc(C(=O)NC(C)c3cnccn3)cc(N(C)C(=O)C3CCCCC3)c2)cc1 (centres unmarked)", "recorded value": 5.9}

P. CC(C)C(=O)N(C)c1cc(C(=O)NC(C)c2cnccn2)cc(-c2ccc(Cl)cn2)c1 (centres unmarked)
Q. COCC(C)NC(=O)c1cc(NC(=O)c2ccc(C)s2)cc(-c2ccc(C)cc2)c1 (centres unmarked)
Prompt: Field: lower P2X3 (pIC50 values for the P2X3 receptor) | Options: P / Q The response must carry the label of the picked entry.
Response: Q
(Q: 5.2, P: 7.75)

###

Molecular target: rat P2X3 receptor (Rattus norvegicus)
Construct: expressed in transfected cells; host or cells: CHO-K1
Assay: P2X3 FLIPR (Fluorometric Imaging Plate Reader) assay
Format: cell-based
Settings: CHO-K1 cells transfected with cloned rat P2X3; agonist α,β-meATP 1 μM; Fluo-3 AM calcium fluorescence
metric name: P2X3 (pIC50 values for the P2X3 receptor)

{"molecule": "Cc1ccc(-c2cc(C(=O)NC(C)c3cnccn3)cc(N(C)C(=O)C3CCCC3)c2)cc1 (stereo not shown)", "recorded value": 7.57}
{"molecule": "CCN(C(=O)C(C)C)c1cc(C(=O)NC(C)c2cnccn2)cc(-c2ccc(C)cc2)c1 (stereo not shown)", "recorded value": 8.11}
{"molecule": "CC(C)C(=O)N(C)c1cc(C(=O)N[C@@H](C)CO)cc(-c2ccc(Cl)cn2)c1", "recorded value": 6.86}
{"molecule": "Cc1ccc(-c2cc(C(=O)N[C@@H](C)CO)cc(N(C)C(=O)C(C)C)c2)cc1", "recorded value": 8.3}

###

Biological target: rat P2X3 receptor (Rattus norvegicus, UniProt P49654)
Construct: expressed in transfected cells; host or cells: CHO-K1
Experiment: P2X3 FLIPR (Fluorometric Imaging Plate Reader) assay
Format: cell-based
Details: CHO-K1 cells transfected with cloned rat P2X3; agonist α,β-meATP 1 μM; Fluo-3 AM calcium fluorescence
metric name: P2X3 (pIC50 values for the P2X3 receptor)

{"molecule": "Cc1ccc(-c2cc(C(=O)NC(C)c3cnccn3)cc(N(C)C(=O)C(C)(C)C)c2)cc1 (centres unmarked) [Compound 32]", "recorded value": 8.01}
{"molecule": "Cc1ccc(-c2cc(C(=O)NCc3cnccn3)cc(N(C)C(=O)C(C)C)c2)cc1 [Compound 62]", "recorded value": 8.14}
{"molecule": "COCC(C)NC(=O)c1cc(NC(=O)c2cc(C)nn2C)cc(-c2ccc(C)cc2)c1 (centres unmarked) [Compound 15]", "recorded value": 5.34}
{"molecule": "CCC(C)(C)C(=O)N(C)c1cc(C(=O)NC(C)c2cnccn2)cc(-c2ccc(C)cc2)c1 (centres unmarked) [Compound 48]", "recorded value": 7.55}
{"molecule": "COCC(C)NC(=O)c1cc(NC(=O)c2ccc(F)cc2Cl)cc(-c2ccc(C)cc2)c1 (centres unmarked) [Compound 9]", "recorded value": 5.44}
{"molecule": "Cc1ccc(-c2cc(C(=O)NC(C)c3cnccn3)cc(N(C)C(=O)C(C)C)c2)nc1 (centres unmarked) [Compound 70]", "recorded value": 8.11}
{"molecule": "COCC(C)NC(=O)c1cc(NC(=O)c2sccc2C)cc(-c2ccc(C)cc2)c1 (centres unmarked) [Compound 14]", "recorded value": 5.35}
{"molecule": "CC(=O)N(c1cc(C(=O)NC(C)c2cnccn2)cc(-c2ccc(C)cc2)c1)c1ccncn1 (centres unmarked) [Compound 24]", "recorded value": 6.31}

###

Target: rat P2X3 receptor (Rattus norvegicus)
Construct: expressed in transfected cells; host or cells: CHO-K1
Experiment: P2X3 FLIPR (Fluorometric Imaging Plate Reader) assay
Type: cell-based
Conditions: CHO-K1 cells transfected with cloned rat P2X3; agonist α,β-meATP 1 μM; Fluo-3 AM calcium fluorescence
metric name: P2X3 (pIC50 values for the P2X3 receptor)

{"compound": "Cc1ccc(-c2cc(C(=O)N[C@@H](C)CO)cc(N(C)C(=O)C(C)C)c2)nc1 [Compound 72]", "recorded value": 7.58}
{"compound": "Cc1ccc(-c2cc(C(=O)NC(C)c3cnccn3)cc(N(C)C(=O)C3CCOCC3)c2)cc1 (stereo not shown) [Compound 43]", "recorded value": 5.86}
{"compound": "CCN(C(=O)OCC(C)C)c1cc(C(=O)NC(C)c2cnccn2)cc(-c2ccc(C)cc2)c1 (stereo not shown) [Compound 35]", "recorded value": 6.82}
{"compound": "CCC(C)C(=O)N(C)c1cc(C(=O)N[C@@H](C)CO)cc(-c2ccc(C)cc2)c1 (stereo partly shown) [Compound 53]", "recorded value": 7.37}

###

Biological target: rat P2X3 receptor (Rattus norvegicus, UniProt P49654)
Construct: expressed in transfected cells; host or cells: CHO-K1
Assay: P2X3 FLIPR (Fluorometric Imaging Plate Reader) assay
Assay type: cell-based
Conditions: CHO-K1 cells transfected with cloned rat P2X3; agonist α,β-meATP 1 μM; Fluo-3 AM calcium fluorescence
metric name: P2X3 (pIC50 values for the P2X3 receptor)

{"compound": "COCC(C)NC(=O)c1cc(NC(=O)c2ccc(C)cc2C)cc(-c2ccc(C)cc2)c1 (stereo not drawn) [Compound 8]", "recorded value": 5.35}
{"compound": "COCC(C)NC(=O)c1cc(NC(=O)c2cscn2)cc(-c2ccc(C)cc2)c1 (stereo not drawn) [Compound 11]", "recorded value": 5.56}
{"compound": "COCC(C)NC(=O)c1cc(NC(=O)c2ccco2)cc(-c2ccc(C)cc2)c1 (stereo not drawn) [Compound 3]", "recorded value": 5.66}
{"compound": "CCN(C(=O)c1ccncc1)c1cc(C(=O)NC(C)COC)cc(-c2ccc(C)cc2)c1 (stereo not drawn) [Compound 28]", "recorded value": 5.4}
{"compound": "CCN(C(=O)CC(C)C)c1cc(C(=O)NC(C)CO)cc(-c2ccc(C)cc2)c1 (stereo not drawn) [Compound 30]", "recorded value": 7.33}
{"compound": "Cc1ccc(-c2cc(C(=O)NC(C)c3cnccn3)cc(N(C(=O)C(C)C)c3ccncn3)c2)cc1 (stereo not drawn) [Compound 26]", "recorded value": 6.99}
{"compound": "COCC(C)NC(=O)c1cc(NC(=O)c2c(-c3ccccc3)noc2C)cc(-c2ccc(C)cc2)c1 (stereo not drawn) [Compound 12]", "recorded value": 5.59}
{"compound": "COCC(C)NC(=O)c1cc(NC(=O)c2nc(C)oc2C)cc(-c2ccc(C)cc2)c1 (stereo not drawn) [Compound 13]", "recorded value": 5.93}
{"compound": "CC(=O)N1CCC(C(=O)N(C)c2cc(C(=O)NC(C)c3cnccn3)cc(-c3ccc(C)cc3)c2)CC1 (stereo not drawn) [Compound 61]", "recorded value": 5.7}
{"compound": "Cc1ccc(-c2cc(C(=O)NCc3cnccn3)cc(N(C)C(=O)C(C)C)c2)c(F)c1 [Compound 60]", "recorded value": 7.8}
{"compound": "Cc1ccc(-c2cc(C(=O)N[C@@H](C)CO)cc(N(C)C(=O)C3CCCC3)c2)cc1 [Compound 50]", "recorded value": 7.85}
{"compound": "CCN(C(=O)c1cccnc1)c1cc(C(=O)NC(C)c2cnccn2)cc(-c2ccc(C)cc2)c1 (stereo not drawn) [Compound 31]", "recorded value": 5.91}
{"compound": "COCC(C)NC(=O)c1cc(NC(=O)C2CCCCC2)cc(-c2ccc(C)cc2)c1 (stereo not drawn) [Compound 7]", "recorded value": 5.49}
{"compound": "CCN(C(=O)C(C)C)c1cc(C(=O)N[C@@H](C)CO)cc(-c2ccc(C)cc2)c1 [Compound 49]", "recorded value": 8.38}
{"compound": "COCC(C)NC(=O)c1cc(NC(=O)c2cc(C)cs2)cc(-c2ccc(C)cc2)c1 (stereo not drawn) [Compound 1]", "recorded value": 6.31}
{"compound": "COCC(C)NC(=O)c1cc(NC(=O)c2ccc(C(F)(F)F)cc2Cl)cc(-c2ccc(C)cc2)c1 (stereo not drawn) [Compound 10]", "recorded value": 5.87}
{"compound": "CC(C)C(=O)N(C)c1cc(C(=O)NC(C)c2cnccn2)cc(-c2ccc(Cl)cc2Cl)c1 (stereo not drawn) [Compound 64]", "recorded value": 7.5}
{"compound": "CCN(C(C)=O)c1cc(C(=O)NC(C)c2cnccn2)cc(-c2ccc(C)cc2)c1 (stereo not drawn) [Compound 21]", "recorded value": 7.28}
{"compound": "Cc1ccc(-c2cc(C(=O)NC(C)c3cnccn3)cc(N(C)C(=O)C(C)C)c2)cc1 (stereo not drawn) [Compound 33]", "recorded value": 8.3}
{"compound": "COCC(C)NC(=O)c1cc(NC(=O)c2cccs2)cc(-c2ccc(C)cc2)c1 (stereo not drawn) [Compound 4]", "recorded value": 5.51}
{"compound": "Cc1ccc(-c2cc(C(=O)NCc3cnccn3)cc(N(C)C(=O)C(C)C)c2)c(Cl)c1 [Compound 56]", "recorded value": 5.6}
{"compound": "CC(C)C(=O)N(C)c1cc(C(=O)NC(C)c2cnccn2)cc(-c2ccc(F)cc2F)c1 (stereo not drawn) [Compound 66]", "recorded value": 6.63}
{"compound": "COC[C@@H](C)NC(=O)c1cc(-c2ccc(Cl)cc2Cl)cc(N(C)C(=O)C(C)C)c1 [Compound 63]", "recorded value": 5.94}
{"compound": "CCN(C(=O)C1CCOCC1)c1cc(C(=O)NC(C)c2cnccn2)cc(-c2ccc(C)cc2)c1 (stereo not drawn) [Compound 41]", "recorded value": 6.86}
